Please go through the items and note down their TGI.
# Test system: SNB-19 CNS
# assayMethodText: NCI tumour cell line growth inhibition, 48 h

TGI reported for this compound Cc1cc(N(CCCNc2ccnc3cc(Cl)ccc23)Cc2ccc3c(c2)OCO3)nc(N2CCOCC2)n1 : > 100 µM

TGI reported for this compound Cc1nc2ccc(F)cc2c2c1CCN2c1ccc(Cl)cc1 : > 100 µM

TGI reported for this compound Cn1c(=O)c(Oc2ccc(F)cc2)cc2cnc(NC3CCOCC3)nc21 : > 25 µM

TGI reported for this compound CN(C)/N=C1/CCC(C(F)(F)F)(C(F)(F)F)O1 : > 100 µM

TGI reported for this compound Cn1c(Nc2ccc(C(F)(F)F)cc2)nc2cc(Oc3ccnc(-c4ncc(C(F)(F)F)[nH]4)c3)ccc21 : 20.1 µM

---

Please go through the items and note down their TGI.
# Test system: DMS 273 small cell lung
# assayMethodText: NCI tumour cell line growth inhibition, 48 h

TGI reported for this molecule CC(Oc1ccc(OCC2CCCCC2)cc1)C(=O)OCC(=O)c1ccc(-c2ccccc2)cc1 (centres undefined) : > 100 µM

TGI reported for this molecule O=S(=O)(c1ccccc1)N1N=C2c3ccccc3CCC[C@H]2C1c1ccccc1 (some centres undefined) : > 100 µM

TGI reported for this molecule CC1(C)CC(=O)CC(=Nc2ccc([N+](=O)[O-])cc2)C1 : > 100 µM

TGI reported for this molecule Cn1cnnc1Sc1c([N+](=O)[O-])ncn1C : > 100 µM

TGI reported for this molecule Nc1ccn(C2OC(C(O)CO)C(O)C2O)c(=O)n1 (centres undefined) : > 100 µM

TGI reported for this molecule C=CCN1CCC23c4c5ccc(O)c4OC2C(=NN=C2CCC4(O)C6Cc7ccc(O)c8c7C4(CCN6CC=C)C2O8)CCC3(O)C1C5 (centres undefined) : 37.7 µM

TGI reported for this molecule O=C1CCC(=O)c2c1c(O)c1ccncc1c2O : 37.7 µM

TGI reported for this molecule CN(C)CCNC(=O)c1cccc2c(Nc3ccc(S(=O)(=O)N=C(N)N)cc3)c3ccccc3nc12 : 24.2 µM

TGI reported for this molecule C=C(C)C1CCC2(C)CC1c1c(c(C)cc3c1[nH]c1ccccc13)O2 (centres undefined) : > 25 µM

TGI reported for this molecule CS(=O)(=O)c1ccc(-c2cc(-c3ccc(S(C)(=O)=O)cc3)[n+](-c3cc(-c4ccccc4)c([O-])c(-c4ccccc4)c3)c(-c3ccc(S(C)(=O)=O)cc3)c2)cc1 : > 100 µM

TGI reported for this molecule O=[N+]([O-])c1ccc(-c2cnc3ccccn23)cc1 : > 100 µM

TGI reported for this molecule CN(C)CCNC(=O)c1cccc2ccc(-c3ccc(F)cc3)nc12 : 11.8 µM

TGI reported for this molecule CN(C)C(=O)/C=C/c1c[nH]c(=O)[nH]c1=O : > 500 µM

TGI reported for this molecule COc1ccc(OC)c(/C=C(/C#N)c2ccccc2)c1 : 24.5 µM

TGI reported for this molecule CN(CCN(C)C(=O)CCn1cc(F)c(=O)[nH]c1=O)C(=O)CCn1cc(F)c(=O)[nH]c1=O : > 100 µM

TGI reported for this molecule Cc1ccc(NC(=O)CCc2nnc(N)o2)cc1 : > 100 µM

TGI reported for this molecule C=CCC1(CN(C)C)CC/C(=C\c2ccc(Cl)cc2)C1=O (centres undefined) : > 59.1 µM

TGI reported for this molecule Cc1nn(C(=O)CC(=O)Nc2ccc(Cl)cc2)c(C)c1N=Nc1ccccc1C(=O)O : > 100 µM

TGI reported for this molecule COC(=O)C(C(=O)Cc1ccccc1[N+](=O)[O-])C(=O)OC : > 100 µM

---

# Tested on: IGROV1 ovarian
# assayMethodText: NCI tumour cell line growth inhibition, 48 h
Returns Y if the recorded TGI is greater than or equal to 40 µM, and N otherwise.

-- ask Answer whether TGI of COc1ccc(-c2nnc(N3CCN(C(=O)CN4CCN(c5ccccc5)CC4)CC3)nc2-c2ccc(OC)cc2)cc1 is greater than or equal to 40 µM.
-- reply Y

-- ask Answer whether TGI of CCN(Cc1ccc(F)cc1)c1ccc(CO)c(Br)c1 is greater than or equal to 40 µM.
-- reply N

-- ask Answer whether TGI of COc1ccc(Cn2c(N)c(S(=O)(=O)c3ccc(Cl)cc3)c3nc(C#N)c(C#N)nc32)cc1 is greater than or equal to 40 µM.
-- reply Y

-- ask Answer whether TGI of O=C(Nc1ccc([N+](=O)[O-])cc1[N+](=O)[O-])C(=O)C(C(=O)c1ccc2ccccc2c1)C1OC(=O)c2ccccc21 (centres undefined) is greater than or equal to 40 µM.
-- reply Y

-- ask Answer whether TGI of CN(C)CCNC(=O)c1cccc2ccc(-c3ccc(F)cc3)nc12 is greater than or equal to 40 µM.
-- reply N

-- ask Answer whether TGI of C[Si](C)(C)/C(Br)=C\CCN1C(=O)CCC1=O is greater than or equal to 40 µM.
-- reply Y

-- ask Answer whether TGI of CN(CCN(C)C(=O)CCn1cc(F)c(=O)[nH]c1=O)C(=O)CCn1cc(F)c(=O)[nH]c1=O is greater than or equal to 40 µM.
-- reply Y

-- ask Answer whether TGI of COc1cccc(C2c3cc4c(cc3OC(C)(N3CCCC3)C2C)OCO4)c1 (centres undefined) is greater than or equal to 40 µM.
-- reply N

-- ask Answer whether TGI of CC1CCN(C(=O)OCc2nc3nc(Cl)nc(N4CCOCC4)c3[nH]2)CC1 is greater than or equal to 40 µM.
-- reply N

---

# Tested on: SK-MEL-28 melanoma
# assayMethodText: NCI tumour cell line growth inhibition, 48 h
parameterMeasured: TGI

Reported TGI (SK-MEL-28 melanoma) for entry CN(C)CCNC(=O)c1cccc2ccc(-c3ccc(F)cc3)nc12 is 20.1 µM

Reported TGI (SK-MEL-28 melanoma) for entry C[N+](C)(C)CC1CCC/C1=N\OC(=O)c1ccccc1 (stereo not given) is > 100 µM

Reported TGI (SK-MEL-28 melanoma) for entry Cc1ccc2c(C3C(C#N)=C(N)Oc4cc5ccccc5cc43)cc(=O)oc2c1 (stereo not given) is > 100 µM

Reported TGI (SK-MEL-28 melanoma) for entry CSc1ccsc1-c1sc(-c2cc(SC)c(-c3sc(-c4cc(SC)c(-c5sccc5SC)s4)cc3SC)s2)cc1SC is > 100 µM

Reported TGI (SK-MEL-28 melanoma) for entry CC(C)[Si]1(C(C)C)OCC2OC3(CO)C(Oc4nc(=O)ccn43)C2O[Si](C(C)C)(C(C)C)O1 (stereo not given) is 29.3 µM

Reported TGI (SK-MEL-28 melanoma) for entry CCOC(=O)/C=C(\C(=O)OCC)n1ccc(=O)n(Cc2cn(CCCCOC(C)=O)nn2)c1=O is 21.2 µM

Reported TGI (SK-MEL-28 melanoma) for entry C[C@H]1C(=O)O[C@@H]2CCN3CC=C(COC(=O)[C@](C)(O)[C@@]1(C)O)[C@H]23 is > 100 µM

Reported TGI (SK-MEL-28 melanoma) for entry CN(C)CCSc1cc(-c2ccccc2)c2ccccc2n1 is 17.9 µM

Reported TGI (SK-MEL-28 melanoma) for entry Cc1nc2ccc(F)cc2c2c1CCN2c1ccc(Cl)cc1 is 28 µM

Reported TGI (SK-MEL-28 melanoma) for entry COc1ccc(C[C@H]2COC(=O)[C@@H]2Cc2cccc(Br)c2)cc1OC is 68.4 µM

---

# Tested on: SW-620 colon
# assayMethodText: NCI tumour cell line growth inhibition, 48 h
parameterMeasured: TGI (µM)
Field format: number, assumed µM, no unit text.

TGI reported for this compound O=C1CCC/C=C\C[C@H]2C=CC(=O)/C2=C/C[C@H](C/C=C\CC(F)(F)F)O1 : 2.05

TGI reported for this compound CC(C)=CCC/C(C)=C/CC/C(C)=C/CC(CO)N(C)CC/C=C(\C)CCC=C(C)C (stereo not given) : 13.7

TGI reported for this compound COC(=O)c1ccc(-c2c(C#N)[n+](=O)c3cc(Cl)c(Cl)cc3n2[O-])cc1 : 45.4

---

# Tested on: SR leukemia
# assayMethodText: NCI tumour cell line growth inhibition, 48 h
Please go through the items and note down their TGI.

Reported TGI (SR leukemia) for entry COC(=O)/C=C\C(C#N)(C#N)N=Cc1cc(Br)cs1 is > 100 µM

Reported TGI (SR leukemia) for entry CN(C)CCCn1cnc2cc(Cl)c(Cl)cc21 is > 100 µM

Reported TGI (SR leukemia) for entry Clc1nc(Cl)nc(Nc2cccc3ccccc23)n1 is 48.3 µM

Reported TGI (SR leukemia) for entry CN(C)c1ccc(N=Nc2ccccn2)c(O)c1 is > 100 µM

Reported TGI (SR leukemia) for entry CC1(Br)Cc2ccccc2C1=O (stereo not drawn) is 1.25 µM

Reported TGI (SR leukemia) for entry c1ccc2c(c1)SCCC2NC1=NCCO1 (stereo not drawn) is > 100 µM

Reported TGI (SR leukemia) for entry CC(C)(C)[Si](C)(C)Oc1ccc(C2CNC(=O)C23CCC(=O)N3Cc2ccccc2)cc1 (stereo not drawn) is > 100 µM

Reported TGI (SR leukemia) for entry Oc1cn(-c2ccc(Cl)cc2)nc1-c1n[nH]c(=S)n1-c1ccccc1 is 94 µM
